// read-out Ki, gathered for Melanocortin receptor 4 (Homo sapiens) from published studies
quantity: Ki (nM)

{"columns": ["compound", "target", "quantity", "relationOperator", "reported"],
 "data": [
  ["CC(C)C[C@H](N)c1cc(C(F)(F)F)ccc1N1CCN(C(=O)CCC(=O)N(C)C)CC1", "Melanocortin receptor 4 (Homo sapiens)", "Ki", ">", 10000],
  ["O=C([C@H]1CN(Cc2ccccc2)C[C@@H]1c1ccc(Cl)cc1)N1CCN(C2(CNCc3ccncc3)CCCCC2)CC1", "Melanocortin receptor 4 (Homo sapiens)", "Ki", "=", 200],
  ["CC(C)C[C@H](N)c1cc(C(F)(F)F)ccc1N1CCN(C(=O)CCc2ccccc2F)CC1", "Melanocortin receptor 4 (Homo sapiens)", "Ki", "=", 2800],
  ["COc1ccc(CCC(=O)N2CCN(c3ccc(C(F)(F)F)cc3[C@@H](N)CC(C)C)CC2)cc1", "Melanocortin receptor 4 (Homo sapiens)", "Ki", "=", 350],
  ["Cc1cccc([C@@H]2CN(C(C)C)C[C@H]2C(=O)N2CCN(c3c(F)cccc3[C@@H](NC(=O)CCN(C)C)C(C)C)CC2)c1", "Melanocortin receptor 4 (Homo sapiens)", "Ki", "=", 470],
  ["CC(C)N1C[C@@H](C(=O)N2CCN(c3ccccc3CNC3CNC3)CC2)[C@H](c2ccc(Cl)cc2)C1", "Melanocortin receptor 4 (Homo sapiens)", "Ki", "=", 520],
  ["NC(N)=NCCNC(=O)[C@H]1C[C@@H](OCc2ccc3ccccc3c2)CN1C(=O)[C@@H](Cc1ccccc1)NC(=O)[C@@H](N)Cc1c[nH]cn1", "Melanocortin receptor 4 (Homo sapiens)", "Ki", "=", 760],
  ["Cc1cncn1Cc1ccccc1N1CCN(C(=O)[C@@H]2CN(C(C)C)C[C@H]2c2ccc(Cl)cc2)CC1", "Melanocortin receptor 4 (Homo sapiens)", "Ki", "=", 250],
  ["CC(C)C[C@H](N)c1cc(C(F)(F)F)ccc1N1CCN(C(=O)CCc2ccccc2O)CC1", "Melanocortin receptor 4 (Homo sapiens)", "Ki", "=", 3300],
  ["CCC(C)[C@H](NC[C@@H]1CCCN1)c1cc(C(F)(F)F)ccc1N1CCN(C(=O)CCc2ccc(Cl)cc2Cl)CC1 (stereo partly drawn)", "Melanocortin receptor 4 (Homo sapiens)", "Ki", "=", 64],
  ["CCC(C)[C@H](NCc1ccccc1F)c1cc(C(F)(F)F)ccc1N1CCN(C(=O)CCc2ccc(Cl)cc2Cl)CC1 (stereo partly drawn)", "Melanocortin receptor 4 (Homo sapiens)", "Ki", ">", 10000],
  ["Cc1ccc(N2CCN(C(=O)C3CN(C4CCOCC4)CC3c3ccc(Cl)cc3)CC2)c([C@@H](N)C(C)C)c1 (stereo partly drawn)", "Melanocortin receptor 4 (Homo sapiens)", "Ki", "=", 12],
  ["CCC(CC)C(=O)N[C@H](Cc1ccc(Cl)cc1)C(=O)N1CCN(C2(CNC(=O)Cc3ccccc3)CCCCC2)CC1", "Melanocortin receptor 4 (Homo sapiens)", "Ki", "=", 1000],
  ["O=C(NCCc1ccc(Cl)cc1Cl)c1ccc(NC(=NC2CCCCC2)N2CCNCC2)cc1", "Melanocortin receptor 4 (Homo sapiens)", "Ki", "=", 650],
  ["CC(C)CC(=O)c1ccccc1N1CCN(C(=O)[C@@H](Cc2ccc(Cl)cc2Cl)N(Cc2ccccn2)Cc2ccccn2)CC1", "Melanocortin receptor 4 (Homo sapiens)", "Ki", "=", 110],
  ["CC(C)[C@H](N)c1cc(C(F)(F)F)ccc1N1CCN(C(=O)[C@H](C)Cc2ccc(Cl)cc2Cl)CC1", "Melanocortin receptor 4 (Homo sapiens)", "Ki", "=", 26],
  ["CC(C)[C@H](N)c1cccc(F)c1N1CCN(C(=O)[C@@H]2CN(C(=O)c3ccccc3)C[C@H]2c2ccc(Cl)cc2)CC1", "Melanocortin receptor 4 (Homo sapiens)", "Ki", "=", 160],
  ["CN(C)[C@H]1C[C@@H](C(=O)N2CCC(Cn3cncn3)(C3CCCCC3)CC2)[C@H](c2ccc(Cl)cc2)C1", "Melanocortin receptor 4 (Homo sapiens)", "Ki", "=", 305],
  ["N=C(N)NCCC[C@H]1C[C@@H](OCc2ccccc2)CN1C(=O)[C@@H](Cc1ccccc1)NC(=O)C1Cc2ccccc2CN1 (single isomer, unassigned)", "Melanocortin receptor 4 (Homo sapiens)", "Ki", "=", 13],
  ["CC(C)N1C[C@@H](C(=O)N2CCN(c3ccccc3CNS(C)(=O)=O)CC2)[C@H](c2ccc(Cl)cc2)C1", "Melanocortin receptor 4 (Homo sapiens)", "Ki", "=", 1700],
  ["CC(=O)N1CC[C@H](c2ccccc2)[C@@H]1C(=O)N1CCN(c2ccc(C)cc2[C@@H](N)C(C)C)CC1", "Melanocortin receptor 4 (Homo sapiens)", "Ki", "=", 1800],
  ["CC(C)[C@H](NC(=O)[C@@H](C)N)c1cccc(F)c1N1CCN(C(=O)[C@@H]2CN(C(C)C)C[C@H]2c2ccc(Cl)cc2)CC1", "Melanocortin receptor 4 (Homo sapiens)", "Ki", "=", 4.4],
  ["CC(C)N1C[C@@H](C(=O)N2CCN(c3ccccc3CNc3cccnc3)CC2)[C@H](c2ccc(Cl)cc2)C1", "Melanocortin receptor 4 (Homo sapiens)", "Ki", "=", 1600]
]}
